Target: T1, human wt-ERα LBD (estrogen receptor alpha ligand-binding domain, amino acids 302-552) (human, UniProt P03372 302-552)
T1 sequence (looked up): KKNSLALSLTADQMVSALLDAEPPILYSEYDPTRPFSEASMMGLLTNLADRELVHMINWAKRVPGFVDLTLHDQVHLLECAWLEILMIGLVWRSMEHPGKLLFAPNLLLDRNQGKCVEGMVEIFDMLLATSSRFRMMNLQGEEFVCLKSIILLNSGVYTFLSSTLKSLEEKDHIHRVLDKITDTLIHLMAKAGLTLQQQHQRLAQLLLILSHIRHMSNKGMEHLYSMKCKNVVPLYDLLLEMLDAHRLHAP
Test: fluorescence polarisation; fluorescence anisotropy; 4 nM fluorescein-SRC-1 NR2 peptide, LBD diluted 2-fold from 10 uM (ERα) or 20 uM (ERβ); with OHT (4-hydroxytamoxifen) at 20 uM (ERα) or 40 uM (ERβ); 20 mM Tris pH 8.0, 150 mM NaCl, 5 mM DTT, 10% glycerol
Conditions: both partners purified
Where no end group is shown, it is not given here. fluorescein = fluorescein label on the N-terminus of the peptide
Observation type: pKd
Worth noting: pKd values are minus log10 of concentrations stated in mol/L.

Entry under review: fluorescein-RHKILHRLLQEGS (also called SRC-1 NR2 peptide; fluorescein-labeled SRC-1 NR2 peptide; source: bought: EZbiolab) [fluorescein-RHKILHRLLQEGS peptide corresponding to the NR box 2-binding motif of SRC-1] . Reported pKd? 4.63
